Molecular target: A disintegrin and metalloproteinase with thrombospondin motifs 5 (Homo sapiens, UniProt Q9UNA0)
Sequence (Q9UNA0 whole entry): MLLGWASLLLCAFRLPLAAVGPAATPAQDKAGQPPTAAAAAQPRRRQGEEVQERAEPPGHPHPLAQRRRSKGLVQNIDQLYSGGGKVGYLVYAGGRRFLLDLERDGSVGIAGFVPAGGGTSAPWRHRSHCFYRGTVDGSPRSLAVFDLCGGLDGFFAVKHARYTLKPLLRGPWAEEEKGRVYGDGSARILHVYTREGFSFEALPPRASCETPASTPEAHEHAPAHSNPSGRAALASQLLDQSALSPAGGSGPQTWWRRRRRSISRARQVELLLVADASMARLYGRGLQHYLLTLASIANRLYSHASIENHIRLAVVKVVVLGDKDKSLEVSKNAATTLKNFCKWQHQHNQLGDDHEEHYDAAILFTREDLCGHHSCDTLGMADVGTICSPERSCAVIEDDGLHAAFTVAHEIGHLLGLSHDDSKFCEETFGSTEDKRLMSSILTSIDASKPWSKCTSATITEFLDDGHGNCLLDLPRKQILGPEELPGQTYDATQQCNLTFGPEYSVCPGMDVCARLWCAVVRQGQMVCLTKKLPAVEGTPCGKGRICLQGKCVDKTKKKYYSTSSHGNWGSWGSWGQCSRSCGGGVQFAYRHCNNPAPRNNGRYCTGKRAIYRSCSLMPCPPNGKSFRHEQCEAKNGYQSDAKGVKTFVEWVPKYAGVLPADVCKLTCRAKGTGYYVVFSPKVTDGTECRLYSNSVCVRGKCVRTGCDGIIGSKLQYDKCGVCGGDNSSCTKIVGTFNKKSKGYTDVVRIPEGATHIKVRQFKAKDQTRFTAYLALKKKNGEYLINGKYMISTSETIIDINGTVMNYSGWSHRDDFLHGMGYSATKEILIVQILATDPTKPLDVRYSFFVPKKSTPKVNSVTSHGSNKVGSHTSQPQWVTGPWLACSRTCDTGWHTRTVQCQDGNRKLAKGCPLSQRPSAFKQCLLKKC
REPORTED_PROPERTY: IC50
Express your answer as a number followed by its unit.

Answered examples (3):
Cn1nc(C(F)(F)F)c(/C=C2\SC(=S)NC2=O)c1SCc1ccc(C(C)(C)C)cc1	2.2 µM
O=C1NC(=S)S/C1=C\c1c(C(F)(F)F)nn(C2CCCCC2)c1N1CCN(c2ncccn2)CC1	11.7 µM
O=C1NC(=S)S/C1=C\c1c(C(F)(F)F)nn(-c2ccccc2)c1OCCc1ccc(F)cc1	7.1 µM

The recorded IC50 for `O=C1NC(=S)S/C1=C\c1c(-c2ccccc2)nn(-c2ccccc2)c1SCc1cccs1` is 3.7 µM

The recorded IC50 for `Cn1nc(C(F)(F)F)c(/C=C2\SC(=S)NC2=O)c1SCc1ccccc1Cl` is 23.2 µM
